assay: Toxicity liver stage against HepG2, at 10uM; assay type: cell-based; parameters: test concentration 10 uM, cell line HepG2-A16-CD81EGFP; settings: human, HepG2-A16-CD81EGFP cells; read-out: INHIBITION
measured-attribute: cytotoxicity at 10 µM (%)

INSERT INTO measurements (compound, result_unit, reported_result) VALUES
  ('O=C(CC1CN(Cc2ccccc2)CCO1)Nc1ccccc1F (stereo unspecified)', '%', -2.05),
  ('Cn1cc(Cl)c(CN2CCn3nc(C(=O)N4CCCC4)cc3C2)n1', '%', 2.42),
  ('CCNc1cc2c(nn1)CCN(C(=O)c1ccnc(-n3ccnc3)c1)C2', '%', -3.01),
  ('CN(C)C(=O)CNC(=O)c1ccc2ccc(N(C)CC3CC3)n2c1', '%', 1.11),
  ('O=C(CCCn1cncn1)NC1(c2ccc(Cl)cc2)CCC1', '%', 6.66),
  ('CC(CC#N)NC(=O)c1cc(Br)c2c(c1)OCCO2 (stereo unspecified)', '%', 5.56),
  ('Cc1cc(N(C)C)nc(C2COCCN2Cc2cc(C)on2)n1 (stereo unspecified)', '%', -3.55),
  ('Cc1ccc(S(C)(=O)=O)cc1C(=O)N1CCCC(n2cncn2)C1 (stereo unspecified)', '%', -8.21),
  ('CC(NCCCN1CCCC1=O)c1cc(Br)ccc1F (stereo unspecified)', '%', 1.63),
  ('CCCC(O)CN1CC(C)(C)CN(C(=O)CCc2ccccc2)CC1=O (stereo unspecified)', '%', -15.4),
  ('Cc1ccc(CNC(=O)C2CCN(C(=O)c3ccccc3)CC2)n1C', '%', 1.2);

----------
assay: Toxicity liver stage against HepG2, at 10uM; assay type: cell-based; design: test concentration 10 uM, cell line HepG2-A16-CD81EGFP; conditions: human, HepG2-A16-CD81EGFP cells; read-out: INHIBITION
measured-attribute: cytotoxicity at 10 µM (%)

INSERT INTO assay_data (compound, reported_result) VALUES
  ('Cc1ccccc1N1CCCN(C(=O)c2cn(C)c3ccccc23)CC1', -11.2),
  ('Cc1nsc(C(=O)NCCc2ccc(S(N)(=O)=O)cc2)n1', 7.11),
  ('CC(C)c1n[nH]c(C2CN(Cc3nnc(C4CC4)o3)CCO2)n1 (stereo unspecified)', -10.1),
  ('COCCN(Cc1ccc(F)cc1Cl)C(=O)c1c(C)noc1C', -1.82),
  ('O=C(C1CC1)N1CCN(C(=O)C2CC(=O)N(c3ccccc3Br)C2)CC1 (stereo unspecified)', 12.8),
  ('O=C(c1ccc2[nH]nnc2c1)N1C[C@H](O)[C@]2(CCCO2)C1', 3.42),
  ('COc1c(C)cnc(CN(C)C(=O)Nc2ccc3c(c2)CCO3)c1C', -0.921),
  ('CCn1cc(CN2CCCCC2CCn2ccnc2C)cc1C#N (stereo unspecified)', -3.09),
  ('COC(=O)N1CCC(Nc2ccc(Cl)c(C#N)n2)C1 (stereo unspecified)', -3.44),
  ('CN1CCN(C(=O)c2cn(-c3ccc(C(F)(F)F)cn3)nn2)CC1', -63),
  ('COCC(=O)NCC[C@H]1CC(C)(C)Oc2ccc(OC)cc21', -5.36),
  ('O=C(Nc1c(F)cccc1F)N1CC(c2nc(C3CC3)no2)C1', -1.65),
  ('O=C(CCc1ccc(=O)[nH]n1)N1CCCC(COc2ccc(F)cc2)C1 (stereo unspecified)', 1.9),
  ('CC1=N[C@@]2(CC[C@@H]3CN(C(=O)Nc4ccc(F)cc4)C[C@@H]32)C(=O)N1C', 8.1),
  ('CCCn1cnc2c1CN(S(=O)(=O)Cc1ccccc1)[C@H](C(=O)OC)C2', -4.84),
  ('O=C(C1CC1)N1C[C@H]2CNC[C@@]2(C(=O)NCCCc2ccccc2)C1', -0.371),
  ('Cc1cc2cccc(NC(=O)N3CC[C@H]4CC[C@@H](C3)N4C)c2o1', 7.89),
  ('Cc1nc(CN2CCCC(N(C)Cc3nc(CC(C)C)no3)C2)no1 (stereo unspecified)', 5.35),
  ('CN(C)CC(=O)N1CCN(c2cc(N3CCCC3CO)ncn2)CC1 (stereo unspecified)', -4.19),
  ('Cn1cc(C2COC3(CCN(C(=O)Cn4cccn4)CC3)C2)cn1 (stereo unspecified)', 2.7),
  ('CC1CCCCN1CCNC(=O)c1ccn(-c2cccc(F)c2)n1 (stereo unspecified)', -26),
  ('CCc1cc(N2CCC(F)(F)CC2)n2nc(C)c(C)c2n1', -6.42),
  ('CN(CCC(=O)NC1CC1)Cc1ccc(Cl)s1', 7.83),
  ('O=S(=O)(N1CCOCC1)N1CCCC(c2ccccn2)C1 (stereo unspecified)', 2.23),
  ('Cn1nc(CN2CCCC2)c2c1CN(C(=O)c1cccnc1)CC2', -146),
  ('CCCn1nc(C)c(-c2cncn2CCN(C)C2CCCC2)c1C', 4.16),
  ('Cc1ccc(NC(=O)C(C)N2CCCN(c3nccs3)CC2)c(C)c1 (stereo unspecified)', 2.72),
  ('CN(C)C(C(=O)N1CCC(c2ncc[nH]2)CC1)c1ccc2c(c1)OCO2 (stereo unspecified)', 2.8),
  ('CCc1nc2n(n1)CC(NCC(=O)Nc1cc(C)on1)CC2 (stereo unspecified)', -7.21),
  ('COc1ccnc(NC(Cc2ccccc2)C(=O)N(C)C)n1 (stereo unspecified)', 6.39),
  ('COc1ncccc1C(=O)N1CC[C@H]2C[C@@H](c3ccncn3)O[C@@H]2C1', -2.24),
  ('CCC1C(=O)NCCN1c1cc(C)ncn1 (stereo unspecified)', 3.41),
  ('Cc1c(C(=O)NCc2ccnc(OCC(F)(F)F)c2)cnn1C', -5.78),
  ('CCc1nnc(CN2CCc3[nH]c(-c4ccc(OC)cc4)nc3C2)o1', -132),
  ('O=S(=O)(NCC1(O)CCOc2ccccc21)c1ccc(Cl)s1 (stereo unspecified)', 6.87),
  ('Cc1ccc(CNC(C)c2ccc3[nH]c(=O)[nH]c3c2)s1 (stereo unspecified)', -10.7),
  ('CC1(C)[C@H](Cc2cc(CO)on2)C[C@@H]1N(CC1CC1)CC1CC1', 3.82),
  ('CC(C)C(C)N(Cc1ccccn1)Cc1ccco1 (stereo unspecified)', -1.99),
  ('CNC(=O)c1cn(C)c(-c2nc3cc(NC(C)=O)ccc3n2C)c1OC', -42.5),
  ('O=C(C1CCOc2ccccc21)N1CCOc2ccc(F)cc21 (stereo unspecified)', -7.54),
  ('Cn1c(=O)[nH]c(=O)c2cc(C(=O)N3CCCC3C3CCCC3)cnc21 (stereo unspecified)', 14),
  ('O=C1C(NCc2nnc3n2CCCC3)CCN1c1ccccc1Cl (stereo unspecified)', -7.42),
  ('Cc1c(NC(=O)c2noc3c2CCCC3)cnn1C', -5.41),
  ('O=C(C1CCCC1)N1CCCC(c2cccc(-n3ccnc3)n2)C1 (stereo unspecified)', -5.52),
  ('CCN(Cc1nccs1)Cc1cc(Cl)ccc1OC', -1.06),
  ('CCCc1nc(C)cc(N2CCC3(CCC(=O)N(CC(N)=O)C3)CC2)n1', -8.38);
